# Test system: KM-20L2
# experimentNotes: NCI tumour cell line growth inhibition, 48 h
The source made the active and inactive calls. Rule as the data show it: active = GI50 up to about 1.1 µM and inactive = higher.
Outcome codes: t for active, f for inactive

compoundString: Cc1cc(C)cc(Sc2c([N+](=O)[O-])ncn2C)c1
assignedCategory: f
--
compoundString: COc1ccc(C(=O)NCCC2=CCCCC2)cc1
assignedCategory: f
--
compoundString: CC(=O)OC(C)(C)/C=C/C(=O)[C@](C)(O)[C@H]1[C@H](O)C[C@@]2(C)[C@@H]3CC=C4[C@@H](C[C@H](O)C(=O)C4(C)C)[C@]3(CO)C(=O)C[C@]12C
assignedCategory: t
--
compoundString: O=C1/C(=C(\Nc2ccccc2)c2ccccc2)C=NN1c1ccccc1
assignedCategory: f
--
compoundString: COC(=O)C(CCC#N)(CCC#N)C(=O)OC
assignedCategory: f
